# Test system: MV-4-11
# assayExplanation: Antiproliferation assay MV-4-11 (Assay 7)
# Format: cell-based
# measurementParameters: Homo sapiens, MV4-11, 72 h, MV-4-11 cells, CellTiter-Glo, single determinations, read-out: IC50 Antiproli MV-4-11
parameterMeasured: IC50
Returns: string containing the number followed by the unit.

[[record]]
compound = "Cc1cc(OCCCc2c(C(=O)O)n3c4c(c(F)ccc24)-c2c(C)nn(C)c2COCCCC3)cc(C)c1Cl (racemic)"
parametermeasured = "IC50"
value = "16.4 µM"


Indicate its recorded IC50; the compound in question is Cc1nn(C)c2c1-c1c(F)ccc3c(CCCOc4cccc5c4CCC5)c(C(=O)O)n(c13)CCCCOC2 (racemic) 12.4 µM

Note IC50 for the compound shown: Cc1c2c(nn1C)C[N+](C)(C)CCCCn1c(C(=O)O)c(CCCOc3cccc4ccccc34)c3ccc(F)c-2c31 13.4 µM

Return IC50 for the following compound: CCc1nn(C)c2c1-c1c(F)ccc3c(CCCOc4cc(C)c(Cl)c(C)c4)c(C(=O)O)n(c13)CCCCOC2 (racemic) 21 µM

Look up and state reported IC50 for Cc1c2c(nn1C)COC/C=C\Cn1c(C(=O)O)c(CCCOc3cccc4ccccc34)c3ccc(F)c-2c31 (racemic) 11.3 µM

Supply reported IC50 belonging to this compound: CCc1nn(C)c2c1-c1c(F)ccc3c(CCCOc4cccc5c4CCC5)c(C(=O)O)n(c13)CCCCOC2 (racemic) 6.2 µM

State its IC50: CCc1nn(C)c2c1-c1c(F)ccc3c(CCCOc4ccc(F)c5ccccc45)c(C(=O)O)n(c13)CCCCOC2 (racemic) 11 µM

Give IC50 for the following compound: CCc1nn(C)c2c1-c1c(F)ccc3c(CCCOc4cccc5c4CCCC5)c(C(=O)O)n(c13)CCCCOC2 (racemic) 9.83 µM
